Ref: PubChem BioAssay (NCI)

# System: OVCAR-3 ovarian
# assay-procedure: NCI-60 one-dose screen, 48 h
# conditions: 10 µM unless noted
The panel holds about 83,000 compounds, 20% with a hit somewhere; the sample as a whole holds those more often. Activity calls are given as the source filed them. Rule for the calls: active = growth percent below 10; inactive = the rest.
Tick one outcome: 1 (active), -1 (inactive)

Please review the following examples before continuing.
Just curious, what result did N#CSCC1CC(O)(c2ccccc2)C(c2ccccc2)C(c2ccc(F)cc2)O1 (stereo unspecified) get here?
1

Per the assay record, what outcome was assigned to Nc1nnc2cc(Cl)ccc2n1 ?
-1

Kindly provide the recorded test outcome for the following compound: O=C(Nc1nc(-c2ccccc2Cl)cs1)c1cc(-c2ccccc2)nc2ccc(Cl)cc12
-1

What call does the record list for CC(O)(CO)c1ccccc1 (stereo unspecified) ?
-1

Given FCc1nc2nc(Cl)c(Cl)nc2[nH]1 , state the outcome it received in this test.
-1

Call for entry NC(=S)N/N=C(\c1ccc(Cl)cc1)C1CC1 :
-1

Given O=c1[nH]nc(-c2ccc(Cl)cc2)cc1Cc1cccc([N+](=O)[O-])c1 , state the outcome it received in this test.
-1

Query: recorded result category for COc1ccc(C2CC(c3cccc(Nc4ccncc4)c3)=NN2c2ccccc2)cc1 (stereo unspecified) in this test
-1

Record lookup: outcome of this test for CN(C)Cc1c(-c2ccccc2)[nH]c2ccccc12 ?
-1

Hey, what did the test say about COc1ccc2nc(N=Nc3c(O)ccc4ccccc34)sc2c1 ?
-1

Here is the next item to consider.
Returns: the outcome recorded for CC(=O)c1c[nH]c2ccc(-c3ccnc(Nc4ccc(NC(=O)c5cccc(F)c5)c(CN5CCOCC5)c4)n3)cc12 in this assay.
1

###

# Tested on: RPMI-8226 leukemia
# assay-procedure: NCI-60 one-dose screen, 48 h (100 = growth as untreated, 0 = no growth, -100 = all killed)
# conditions: 10 µM unless noted
About 83,000 compounds went through this panel and 20% of them were active in at least one assay; those are over-represented in the sample as a whole.
quantity-name: growth (%)
Return type: number; implicit unit %.

# example entries with known answers
Using the record for CC(C)C1C2=C(NCCN1C(=O)Cc1ccccc1)C(C)(C)N(Cc1ccccc1)C2=O (stereo not given) , report its growth.
102

Value lookup for growth; key = O=C(N/N=C/c1cccc(O)c1)c1ccccc1Nc1cccc(C(F)(F)F)c1
87.5

Quick one: growth for Cc1ccc(C2CC(c3cccc(Nc4ccncc4)c3)=NN2c2ccc(Cl)cc2)cc1 (stereo not given) ?
-46

Which measured growth value corresponds to CC(C)[N+](C)(CCOC(COc1ccccc1)COc1ccccc1)C(C)C ?
49.3

For the molecule shown here, Clc1ccc2c(c1)c(-c1ccccc1)nc1nncn12 , give the reported growth.
103

New cases:
// query growth value for entry CC1(C)CCCN1CCCN1c2ccccc2Sc2ccc(Cl)cc21
28.6

# growth lookup, item COc1ccc(C(=O)c2cc3c(N)c(C(=O)Nc4cccc5ccccc45)sc3nc2C)cc1
5.61

Any idea what its growth is? The molecule is OC1(c2ccc(Cl)c(C(F)(F)F)c2)CCN(CCCC(c2ccc(F)cc2)c2ccc(F)cc2)CC1
-22

Name the recorded growth for CN1CCN(CCCOc2ccc3ncnc(Nc4ccc(Oc5cccc(C(F)(F)F)c5)c(Cl)c4)c3c2)CC1 .
-21.6

Endpoint output: growth of Cc1cc(C(=O)Nc2ncnc3nc[nH]c23)no1 . Value?
95
